Test system: SNB-75
Run Description: Antiproliferative activity against human SNB75 cells after 48 hrs
Assay type: functional
Measurement Parameters: SNB-75, 48 h
Recorded Endpoint: GI50

[[record]]
chemical_structure = "CCCCCCCCCCCCCCN[C@H](C)[C@@H](O)c1ccccc1.Cl"
measured_target = "SNB-75"
recorded_endpoint = "GI50"
assay_result = "2090 nM"

[[record]]
chemical_structure = "CCCCCCCCCCCCCCN[C@@H](C)[C@H](O)c1ccccc1"
measured_target = "SNB-75"
recorded_endpoint = "GI50"
assay_result = "1700 nM"

[[record]]
chemical_structure = "C[C@@H](NC(=O)CCCCCCCCCCCCCCC[n+]1ccccc1)[C@@H](O)c1ccccc1.[Br-]"
measured_target = "SNB-75"
recorded_endpoint = "GI50"
assay_result = "2950 nM"

[[record]]
chemical_structure = "CCCCCCCCCCCCCCN[C@H](CO)[C@H](O)c1ccccc1"
measured_target = "SNB-75"
recorded_endpoint = "GI50"
assay_result = "2290 nM"

[[record]]
chemical_structure = "CCCCCCCCCCCCCCN[C@@H](CO)Cc1ccccc1"
measured_target = "SNB-75"
recorded_endpoint = "GI50"
assay_result = "2190 nM"

[[record]]
chemical_structure = "C[C@H](NC(=O)CCCCCCCCCCCCCCC[n+]1ccccc1)[C@H](O)c1ccccc1.[Br-]"
measured_target = "SNB-75"
recorded_endpoint = "GI50"
assay_result = "1700 nM"

[[record]]
chemical_structure = "CCCCCCCCCCCCCCN[C@H](CO)[C@H](O)c1ccc([N+](=O)[O-])cc1.Cl"
measured_target = "SNB-75"
recorded_endpoint = "GI50"
assay_result = "3980 nM"


###

Test system: SK-MEL-2
Run Description: Antiproliferative activity against human SKMEL2 cells after 48 hrs
Type: functional
Measurement Parameters: SK-MEL-2, 48 h
Note to self: GI50 under 2 µM means 1, ties and anything higher get -1.

[[record]]
chemical_structure = "CCCCCCCCCCCCCCN[C@H](CO)[C@H](O)c1ccc([N+](=O)[O-])cc1.Cl"
cat = -1

[[record]]
chemical_structure = "C[C@H](NC(=O)CCCCCCCCCCCCCCC[n+]1ccccc1)[C@H](O)c1ccccc1.[Br-]"
cat = -1

[[record]]
chemical_structure = "C[C@@H](NC(=O)CCCCCCCCCCCCCCC[n+]1ccccc1)[C@@H](O)c1ccccc1.[Br-]"
cat = -1

[[record]]
chemical_structure = "CCCCCCCCCCCCCCN[C@H](CO)[C@H](O)c1ccccc1"
cat = -1

[[record]]
chemical_structure = "CCCCCCCCCCCCCCN[C@@H](CO)Cc1ccccc1"
cat = -1

[[record]]
chemical_structure = "CCCCCCCCCCCCCCN[C@@H](C)[C@H](O)c1ccccc1"
cat = 1


###

System: ACHN
Run Description: Antiproliferative activity against human ACHN cells after 48 hrs
Assay type: functional
Measurement Parameters: read-out: Log LC50 (the source's name) (converted)
Recorded Endpoint: CC50 (µM)

[[record]]
chemical_structure = "CCCCCCCCCCCCCCN[C@H](CO)[C@H](O)c1ccc([N+](=O)[O-])cc1.Cl"
assay_result = 6.17

[[record]]
chemical_structure = "CCCCCCCCCCCCCCN[C@H](C)[C@@H](O)c1ccccc1.Cl"
assay_result = 5.89

[[record]]
chemical_structure = "C[C@H](NC(=O)CCCCCCCCCCCCCCC[n+]1ccccc1)[C@H](O)c1ccccc1.[Br-]"
assay_result = 91.2

[[record]]
chemical_structure = "C[C@@H](NC(=O)CCCCCCCCCCCCCCC[n+]1ccccc1)[C@@H](O)c1ccccc1.[Br-]"
assay_result = 64.6

[[record]]
chemical_structure = "CCCCCCCCCCCCCCN[C@H](CO)[C@H](O)c1ccccc1"
assay_result = 5.62

[[record]]
chemical_structure = "CCCCCCCCCCCCCCN[C@@H](CO)Cc1ccccc1"
assay_result = 5.89

[[record]]
chemical_structure = "CCCCCCCCCCCCCCN[C@@H](C)[C@H](O)c1ccccc1"
assay_result = 6.03

